These measurements were taken from patent US20190106487A1.

Reported log10 EC50 values for the following binders.
- Target Of Assay: T1, rhIL-1RAcP/Fc Chimera (human, UniProt Q9NPH3 21-359)
- T1 construct: also called P013_03; P013-03
- T1 sequence (looked up): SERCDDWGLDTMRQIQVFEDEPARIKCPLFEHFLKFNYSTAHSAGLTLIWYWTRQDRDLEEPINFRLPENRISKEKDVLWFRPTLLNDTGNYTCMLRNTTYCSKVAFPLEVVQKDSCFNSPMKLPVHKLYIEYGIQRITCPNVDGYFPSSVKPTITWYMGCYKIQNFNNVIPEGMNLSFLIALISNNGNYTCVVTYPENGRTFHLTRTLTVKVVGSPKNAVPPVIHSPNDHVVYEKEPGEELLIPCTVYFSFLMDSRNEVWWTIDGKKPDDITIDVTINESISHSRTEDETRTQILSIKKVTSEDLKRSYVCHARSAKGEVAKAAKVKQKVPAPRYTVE
- Protocol Summary: ELISA, recombinant purified mAb
Endpoint: log10 EC50 (log10 of the value in µg/mL)

{"Binder": "P013.S.01.B.G05 (antibody, V domains shown, rabbit monoclonal antibody; also called P013.A.00088.C10) VH: LEQSGGGAEGGLVKPGGSLELCCKASGFSLSSAYWICWVRQAPGKGLEWVGCIYADSSSITYYASWVNGRFTLSRDIDQSTGCLQLNSLTAADTAMYYCARDYGGSGYNFNLWGQGTLVTVSS VL: ALVMTQTPSPVSAAVGGTVTISCQASEDIYSNLAWYQQKRGQPPKLLIYYASTLASGVPSRFSGSGSGTEFTLTISGLQSDDAATYYCLGVCTYINANGWDNAFGGGTEVVVK", "Measurement": -0.09}
{"Binder": "P013.S.02.B.G02 (antibody, V domains shown, rabbit monoclonal antibody; also called P013.A.00014.C07) VH: QSLEESGGDLVKPGASLTLTCTASGFSLSSGGMTWVRQAPGKGLEWIGYINTGSGRTYYASWAKGRFIISKTSSTTVSLQMTSLTAADTATYFCAGGLPSDLWGPGTLVTVSS VL: DIVMTQTPSSVEAAVGGTVTIKCQASQSINSRLAWYQQKPGQPPKLLIYDASTLASGVSSRFSGSGTEFTLTISDLESADGATYYCLSHYLTSSSSYGNAFGGGTEVVVK", "Measurement": -0.31}
{"Binder": "P013.S.01.B.D04 (antibody, V domains shown, rabbit monoclonal antibody; also called P013.A.00088.B09) VH: QEQLKESGGRLVTPGGSLTLTCTVSGFSLSIYAMGWFRQAPGKGLEWIGDIYPGSDSTWYASWAKGRFTISKTSTTVDLKITSPTTEDTATYFCAREIDAGYVGYGFDLWGQGTLVTVSS VL: AQALTQTPSSVSAAVGGTVTINCQSSQSVYSDYLAWYQQKPGQSPKLLIYKASKLASGVPSRFKGSGSGTEFTLTISGVQSDDAATYYCQATYYSVGWYRAFGGGTEVVVK", "Measurement": -0.61}
{"Binder": "P013.S.02.B.E02 (antibody, V domains shown, rabbit monoclonal antibody; also called P013.A.00087.E09) VH: QSVEESGGRLVTPGTPLTLTCTVSGFSLNVYNMGWVRQAPGKGLEYIGIISSSGTTYYASWAKGRFTISKTSSTTVDLKITSLTTEDTATYFCARADGYTEGDYATYFNLWGQGTLVTVSS VL: DIVMTQTPASVSEPVGGTVTIKCQASQSITTWLAWYQQKPGQPPKLLIYQASALASGVSSRFIGSGYGTEFTLTISGVQSEDAATYYCQCTYGIGSGSSYGVAFGGGTEVVVK", "Measurement": -0.23}
{"Binder": "P013.S.02.B.D02 (antibody, V domains shown, rabbit monoclonal antibody; also called P013.A.00086.F05) VH: QSLEESGGDLVKPGASLKLSCTASGVSFSSAYWMCWVRQAPGKGLEWIACIYAGSSGSTYYASWAKGRFTISKTSSTTVTLQMTSLTAADTATYFCARHAAWFELDLWGPGTLVTVSS VL: ALVMTQTPSPVSAAVGGTVTINCQASQNIASAYLSWYQQKPGQPPKLLIYAASTLTDGVPSRFKGSGSVTEFTLTISGVQSDDAATYYCAGYKSYTDDEFAFGGGTEVVVK", "Measurement": -0.27}
{"Binder": "P013.S.01.B.E03 (antibody, V domains shown, rabbit monoclonal antibody; also called P013.A.00015.E03) VH: QSLEESGGRLVTPGTPLTLTCTASGFSITNYHISWVRQAPGKGLEWIGYIYAGRDFTYYANWAEGRFTISKTSTTVDLQVTVPTTEDTATYFCARDGGSPNWTLDLWGQGTLVTVSS VL: DVVMTQTPASVSEPVGGTVTINCQASESISDYLSWYQQKPGQPPKLLIYRASTLESGVSSRFKGSGSGTQFTLTISDLESADAATYYCQSNYYDSRGNAFGGGTEVVVK", "Measurement": -1.30}
{"Binder": "P013.S.01.B.A03 (antibody, V domains shown, rabbit monoclonal antibody; also called P013.A.00088.A07) VH: QEQLEESGGDLVQPEGSLTVTCTASGFSFSFGYYMCWVRQAPGKGLEWIACIYGDSSDTLYANWAKGRFTVSKTSSTTVTLQMTSLTAADTATYFCARYPGGSYYNLWGPGTRVTVSS VL: ALVMTQTPASVEAAVGGTVTIKCQASQTISINLAWYQQKPGQRPKLLIYYASTLASGVPSRFSGSGSGTEFTLTISGVQSDDAATYYCQQGYTEDNIDNTFGGGTEVVVK", "Measurement": -0.65}
{"Binder": "P013.S.01.B.F04 (antibody, V domains shown, rabbit monoclonal antibody; also called P013.A.00133.A12) VH: LEQSGGGAEGGLVKPGGSLELCCKASGFSLSTSYWRCWVRQAPGKGLEWIGCIYAGSSDATYYANWVNGRFTLSRDIDQSTGCLQLNSLTAADTAMYYCASGVGFGYFNLWGQGTLVTVSS VL: ALVMTQTPSPVSAAVGGTVTINCQASEDIYSNLAWFQQKPGQPPKLLIYDASTLASGVPSRFSGSGSGTEFTLTISGLQSDDAATYYCLGVYTHISADNAFGGGTEVVVK", "Measurement": -1.34}
{"Binder": "P013.S.02.B.C01 (antibody, V domains shown, rabbit monoclonal antibody; also called P013.A.00109.C12) VH: QSVEESGGRLVTPGGSLTLTCTVSGFSLSVYAMGWFRQAPGKGLEWIGDIYTGSGSTWYASWAKGRFTISKTSTTVDLKITSPTTEDTATYFCAREIDAGYVGYGFNLWGQGTLVTVSS VL: AQALTQTPSSVSAAVGGTVTINCQSSQSVYSDYLVWYQQKPGQPPKLLIYQASKLASGVPSRFKGSGSGTQFTLTISGVQSDDAATYYCQATYSSTGWYRAFGGGTEVVVK", "Measurement": -0.59}
{"Binder": "P013.S.01.B.G02 (antibody, V domains shown, rabbit monoclonal antibody; also called P013.A.00085.B11) VH: QSVEESGGRLVTPGTPLTLTCTVSGFSLSSYYMSWVRQAPGKGLEWIGYIYAAGPITYYATWAKGRFTISKTSTTVDLKITSPTTEDTATYFCVRDGSGSGTYGYNGMDLWGPGTLVTVSS VL: AYDMTQTPASVEAAVGGTVNIKCQASQSISNWLAWYQQKPGQRPKLLIYRASTLASGVSSRFKGSGSGTQFTLTISGVESADAATYYCQQGASTTDVDNVFGGGTEVVVK", "Measurement": -1.31}
